List of pEC50 values.
test system: HeLa; experiment: In vitro cell proliferation assay (MTT); type: cell-based; conditions: Homo sapiens, 72 h
pEC50: −log10 of the molar value.
MEASURED_ENDPOINT: pEC50

> print(dat)
                                    compound   measurement
 1  COC(=O)c1cc2cc(NCc3cc(NC(=S)Nc4cccc(C(F)(F)F)c4)ccc3C)cnc2[nH]1 [OR1016]        ≤ 6.00
 2  COC(=O)c1cc2cc(NCc3cc(NC(=O)c4cc(CN5CCN(C)CC5)cc(C(F)(F)F)c4)ccc3C)cnc2[nH]1 [OR0699]  6.00 to 7.00
 3  COC(=O)c1cc2cc(NCc3cccc(NC(=O)c4ccc(CN5CCN(C)CC5)c(C(F)(F)F)c4)c3)cnc2[nH]1 [OR1067]  6.00 to 7.00
 4  COC(=O)c1cc2cc(NCc3cc(NC(=O)c4ccc(CN5CCN(C)CC5)c(C(F)(F)F)c4)ccc3C)cnc2[nH]1 [OR0512]  6.00 to 7.00
 5  COC(=O)c1cc2cc(NCc3cc(NC(=O)c4cccc(OC(F)(F)F)c4)ccc3C)cnc2[nH]1 [OR0611]        ≤ 6.00
 6  COC(=O)c1cc2cc(NCc3cc(NC(=O)Nc4ccncc4)ccc3C)cnc2[nH]1 [OR0952]        ≤ 6.00
 7  COC(=O)c1cc2cc(NC(=O)c3cc(NC(=O)c4ccc(CN5CCN(C)CC5)c(C(F)(F)F)c4)ccc3C)cnc2[nH]1 [OR0744]  6.00 to 7.00
 8  COC(=O)c1cc2cc(NCc3cc(NC(=O)c4ccccc4OC)ccc3C)cnc2[nH]1 [OR1062]        ≤ 6.00
 9  COC(=O)c1cc2cc(NC(=O)c3cccc(CNC(=S)c4cccc(C(F)(F)F)c4)c3)cnc2[nH]1 [OR1011]        ≤ 6.00
10  COC(=O)c1cc2cc(NCc3cc(NC(=O)c4cccc(C(F)(F)F)c4)ccc3C)cnc2[nH]1 [OR0606]        ≤ 6.00
11  COC(=O)c1cc2cc(NCc3cc(NC(=S)c4ccc(CN5CCN(C)CC5)c(C(F)(F)F)c4)ccc3C)cnc2[nH]1 [OR0626]        ≤ 6.00
12  COC(=O)c1cc2cc(NC(=O)c3cc(NC(=O)c4cncc(C(F)(F)F)c4)ccc3C)cnc2[nH]1 [OR0745]        ≤ 6.00

###

Listed next: entries and their corresponding EC50.
system: HT29; experiment: In vitro cell proliferation assay (MTT); assay type: cell-based; conditions: Homo sapiens, HT-29, 72 h
MEASURED_ENDPOINT: EC50

> print(dat)
                                   compound  target.of.assay  measured.endpoint     measurement
1  COC(=O)c1cc2cc(NCc3cc(NC(=O)c4cccc(C(C)C)c4)ccc3C)cnc2[nH]1             HT29               EC50  100 to 1000 nM
2  COC(=O)c1cc2cc(NCc3cc(NC(=O)c4ccc(CNCCN5CCN(C)CC5)c(C(F)(F)F)c4)ccc3C)cnc2[nH]1             HT29               EC50  100 to 1000 nM
3  COC(=O)c1cc2cc(NCc3cc(NC(=O)c4cccc(OC(F)(F)F)c4)ccc3C)cnc2[nH]1             HT29               EC50  100 to 1000 nM
4  COC(=O)c1cc2cc(NCc3cc(NC(=O)c4ccc(CN5CCNCC5)c(C(F)(F)F)c4)ccc3C)cnc2[nH]1             HT29               EC50        ≤ 100 nM
5  COC(=O)c1cc2cc(NCc3cc(NC(=O)c4ccc5c(c4)OCO5)ccc3C)cnc2[nH]1             HT29               EC50       ≥ 1000 nM
6  COC(=O)c1cc2cc(NCc3cc(NC(=O)c4ccc(CN5CCC(O)CC5)c(C(F)(F)F)c4)ccc3C)cnc2[nH]1             HT29               EC50  100 to 1000 nM
7  COC(=O)c1cc2cc(NCc3cc(NC(=O)c4ccc(CN5CCOCC5)c(C(F)(F)F)c4)ccc3C)cnc2[nH]1             HT29               EC50  100 to 1000 nM
